Each entry below carries its recorded Percent Effect.
MEASURED ON: Protein translocase subunit SecA (Escherichia coli (strain K12))
PROCEDURE TEXT: Assay to Identify E. coli SecA ATPase Inhibitors
Assay type: functional
Parameters: scale not given: direction of the effect not stated beside the values
CONDITION SET: 30 µM
Potency and affinity values are given separately.
ASSAY ENDPOINT: Percent Effect (%)

- COMPOUND: "CCC(O)CN1CCN(C(=O)c2sccc2OC)CC1 (configuration not stated)"
  ASSAY ENDPOINT: "Percent Effect"
  UNIT SYMBOL: "%"
  REPORTED RESULT: 0.313
- COMPOUND: "Cc1cc(-c2nn(C)c(Cl)c2CN2Cc3ccccc3C(O)C2)no1 (configuration not stated)"
  ASSAY ENDPOINT: "Percent Effect"
  UNIT SYMBOL: "%"
  REPORTED RESULT: -0.14
- COMPOUND: "CCCN1CCCn2nc(CNS(=O)(=O)c3cccc(C#N)c3)cc2C1"
  ASSAY ENDPOINT: "Percent Effect"
  UNIT SYMBOL: "%"
  REPORTED RESULT: -7.29
- COMPOUND: "Cc1cncc(C2CCCN(Cc3cccn3C)C2)n1 (configuration not stated)"
  ASSAY ENDPOINT: "Percent Effect"
  UNIT SYMBOL: "%"
  REPORTED RESULT: -2.21
- COMPOUND: "Cc1ccoc1-c1nnc(CN2CCCC(Cn3cncn3)C2)o1 (configuration not stated)"
  ASSAY ENDPOINT: "Percent Effect"
  UNIT SYMBOL: "%"
  REPORTED RESULT: -4.32
- COMPOUND: "O=c1[nH][nH]cc1-c1ccnc(NCCN2CCCC2)n1"
  ASSAY ENDPOINT: "Percent Effect"
  UNIT SYMBOL: "%"
  REPORTED RESULT: 3.78
- COMPOUND: "CCn1ccnc1CN1CCCN(C(=O)c2cc(Cl)c[nH]2)CC1"
  ASSAY ENDPOINT: "Percent Effect"
  UNIT SYMBOL: "%"
  REPORTED RESULT: -1.59
- COMPOUND: "COc1ccc(CNC(=O)N2CCC(Cc3cnn(C)c3)C2)cc1C (configuration not stated)"
  ASSAY ENDPOINT: "Percent Effect"
  UNIT SYMBOL: "%"
  REPORTED RESULT: -1.91
- COMPOUND: "Cc1c(CN2CCCC(c3[nH]ncc3S(C)(=O)=O)C2)cnn1C (configuration not stated)"
  ASSAY ENDPOINT: "Percent Effect"
  UNIT SYMBOL: "%"
  REPORTED RESULT: -2.55
- COMPOUND: "CCn1c(Cn2cncn2)nnc1C1CCN(Cc2ccc(C)o2)CC1"
  ASSAY ENDPOINT: "Percent Effect"
  UNIT SYMBOL: "%"
  REPORTED RESULT: -6.62
- COMPOUND: "O=C(C1CC1)N1CC[C@H](O)[C@@H]1Cc1ccccc1"
  ASSAY ENDPOINT: "Percent Effect"
  UNIT SYMBOL: "%"
  REPORTED RESULT: -7.5
- COMPOUND: "COC(=O)c1cccn1C1CCN(CC(=O)NC2CCCCC2)CC1"
  ASSAY ENDPOINT: "Percent Effect"
  UNIT SYMBOL: "%"
  REPORTED RESULT: -0.883
